Reference source for all entries: patent US8598173B2

System: PANC-1 (pancreas)
Experiment: Cell growth inhibition assay (SRB), PANC-1
Type: cell-based, human
Settings: Homo sapiens; PANC-1; SRB method, 96 hours incubation; read-out: Inhibition of cell growth (IC50, μM) by quinoxaline-piperazine compounds against human cancer cell lines: PANC-1
Below, each of the compounds is paired with its reported IC50 value.
The answer is to be given in µM; state only the numeric part.

Smiles Str: COc1ccc2nc(OC)c(NC(=O)N3CCN(c4cccc(C)c4)CC3)nc2c1
Recorded Endpoint: IC50
Experimental Value: 1.43
--
Smiles Str: COc1nc2ccc(C)cc2nc1NC(=O)N1CCN(c2cccc(Cl)c2)CC1
Recorded Endpoint: IC50
Experimental Value: 0.64
--
Smiles Str: COc1nc2ccc(C)cc2nc1NC(=O)N1CCN(c2cccc(C)c2)CC1
Recorded Endpoint: IC50
Experimental Value: 1.04

Let's switch to this compound now.
Problem: Answer with reported IC50 of "COc1cc(OC)cc(N2CCN(C(=O)Nc3nc4cc(Cl)ccc4nc3OC)CC2)c1"
Result: 0.098
